# testedOn: Kappa-type opioid receptor (Homo sapiens)
# Sequence (P41145 whole entry): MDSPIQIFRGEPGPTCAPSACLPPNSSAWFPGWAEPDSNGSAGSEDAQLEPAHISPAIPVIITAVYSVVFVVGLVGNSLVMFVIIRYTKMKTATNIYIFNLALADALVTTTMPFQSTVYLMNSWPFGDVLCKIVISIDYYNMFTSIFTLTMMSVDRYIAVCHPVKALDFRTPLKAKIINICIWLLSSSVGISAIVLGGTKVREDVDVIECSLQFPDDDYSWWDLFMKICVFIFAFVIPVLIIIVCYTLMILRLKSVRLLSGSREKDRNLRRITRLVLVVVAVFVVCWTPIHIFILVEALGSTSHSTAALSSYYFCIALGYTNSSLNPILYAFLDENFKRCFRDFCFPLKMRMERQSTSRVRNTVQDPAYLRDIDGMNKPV
# assayOverview: Displacement of [3H]U69593 from recombinant human kappa-opioid receptor expressed in CHO cell membranes at 1 X 10^-5 M after 60 mins by liquid scintillation counting method relative to control
endpointName: inhibition (%)
API: value field is a number in %; no unit string.

For orientation, consider the following solved cases.
{"columns": ["compound", "observedResult"],
 "data": [
  ["Cc1cccc(C2CCCN2Cc2ccc(Oc3ccc(C(N)=O)c4ccccc34)cc2)c1 (centres undefined)", 86.9],
  ["NC(=O)c1ccc(Oc2ccc(CN3CCCC3c3cccc(Cl)c3)cc2)c2ccccc12 (centres undefined)", 64.1],
  ["Cc1cc(C)cc(C2CCCN2Cc2ccc(Oc3ccc(C(N)=O)cc3F)c(Cl)c2)c1 (centres undefined)", 100],
  ["NC(=O)c1ccc(Oc2ccc(CN3CCCC3c3ccc(F)cc3)cc2)c2ccccc12 (centres undefined)", 39],
  ["Cc1cc(C)cc(C2CCCN2Cc2ccc(Oc3ccc(C(N)=O)cc3F)cc2)c1 (racemic)", 100]
]}

Record request: inhibition value, item Cc1cc(C)cc(C2CCCN2Cc2ccc(Oc3ccc(C(N)=O)cc3)c(Cl)c2)c1 (centres undefined)
100

Would you mind doing Cc1cc(C)cc(C2CCCN2Cc2ccc(Oc3ccc(C(N)=O)cc3)c(F)c2)c1 (centres undefined) as well?
100

Follow-up entry: Cc1cc(C)cc(C2CCCN2Cc2ccc(Oc3ccc(C(N)=O)cc3F)c(F)c2)c1 (centres undefined)
98.7

Ok, now Cc1ccccc1C1CCCN1Cc1ccc(Oc2ccc(C(N)=O)c3ccccc23)cc1 (centres undefined)
34

###

# testedOn: Delta-type opioid receptor (Homo sapiens)
# Sequence (P41143 whole entry): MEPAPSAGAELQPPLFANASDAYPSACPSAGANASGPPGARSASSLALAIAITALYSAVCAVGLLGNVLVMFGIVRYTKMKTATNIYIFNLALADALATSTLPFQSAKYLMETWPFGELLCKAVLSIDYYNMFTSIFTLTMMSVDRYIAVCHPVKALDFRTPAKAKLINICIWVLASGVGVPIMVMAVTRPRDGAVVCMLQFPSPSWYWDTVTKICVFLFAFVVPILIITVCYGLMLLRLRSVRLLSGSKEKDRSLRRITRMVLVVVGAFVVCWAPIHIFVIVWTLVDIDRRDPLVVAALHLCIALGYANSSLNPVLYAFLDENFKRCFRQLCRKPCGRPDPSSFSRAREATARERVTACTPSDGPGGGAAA
# assayOverview: Displacement of [3H]DPDPE from recombinant human delta-opioid receptor expressed in HEK293 cell membranes at 1 X 10^-6 M after 60 mins by liquid scintillation counting method relative to control
endpointName: inhibition
Entry format: amount then unit.

Quick check: inhibition on Delta-type opioid receptor (Homo sapiens), item NC(=O)c1ccc(Oc2ccc(CN3CCCC3c3cccc(Cl)c3)cc2)c2ccccc12 (centres undefined) ?
0%

Check Cc1ccccc1C1CCCN1Cc1ccc(Oc2ccc(C(N)=O)c3ccccc23)cc1 (centres undefined) too.
0%

Same read-out for Cc1cc(C)cc(C2CCCN2Cc2ccc(Oc3ccc(C(N)=O)cc3F)c(Cl)c2)c1 (centres undefined) ?
54.1%

Entry NC(=O)c1ccc(Oc2ccc(CN3CCCC3c3cccnc3)cc2)c2ccccc12 (centres undefined) please
0%

###

# testedOn: Kappa-type opioid receptor (Homo sapiens)
# assayOverview: Displacement of [3H]U69593 from recombinant human kappa-opioid receptor expressed in CHO cell membranes after 60 mins by liquid scintillation counting method
We label by threshold. Values of Ki strictly beneath 0.04 µM are class 1. Values of 0.04 µM and up are class 0.

Please review the following examples before continuing.
{"columns": ["compound", "qualitativeLabel"],
 "data": [
  ["Cc1cccc(C2CCCN2Cc2ccc(Oc3ccc(C(N)=O)c4ccccc34)cc2)c1 (configuration not stated)", "class 0"],
  ["Cc1cc(C)cc(C2CCCN2Cc2ccc(Oc3ccc(C(N)=O)cc3)c(F)c2)c1 (configuration not stated)", "class 1"],
  ["Cc1cc(C)cc(C2CCCN2Cc2ccc(Oc3ccc(C(N)=O)cc3)c(Cl)c2)c1 (configuration not stated)", "class 1"],
  ["Cc1cc(C)cc(C2CCCN2Cc2ccc(Oc3ccc(C(N)=O)cc3F)c(F)c2)c1 (configuration not stated)", "class 0"],
  ["COc1ccc(C2CCCN2Cc2ccc(Oc3ccc(C(N)=O)c4ccccc34)cc2)cc1 (configuration not stated)", "class 0"],
  ["Cc1cc(C)cc(C2CCCN2Cc2ccc(Oc3ccc(C(N)=O)cc3F)cc2)c1 (racemic)", "class 1"]
]}

Kindly review the next compound as well.
Given Cc1cc(C)cc(C2CCCN2Cc2ccc(Oc3ccc(C(N)=O)cc3F)c(Cl)c2)c1 (configuration not stated) , is recorded Ki strictly lower than 0.04 µM?
class 1

The reported measurements were obtained from ChEMBL document CHEMBL4049389.
